Every entry's value here was drawn from patent US20120093811A1.

Exercise: state measured koff for each of the binders provided.
- assayed target: T1, VEGF-D (recombinant human; source not given) (human, UniProt O43915 89-205, limits assumed)
- T1 construct: also used here as target of IC50 values averaged over Source 1 and Source 2; also called vascular endothelial growth factor-D
- T1 sequence: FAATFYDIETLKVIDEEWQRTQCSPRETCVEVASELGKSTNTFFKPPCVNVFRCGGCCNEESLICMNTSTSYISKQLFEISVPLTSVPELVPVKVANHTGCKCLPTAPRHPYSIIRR
- assay text: SPR (BIAcore) off-rate ranking of scFv clones
Could you give me the number in s⁻¹? Just the number is fine.

QUERY: Using the record for scFv clone A63 (scFv) scFv: QVQLVQSGAKVKQPGASVKASCKASGYTFTGYNMYWVRQAPGQGLEWMGYIDPYNGDTTYNQKFKGRVTMTTDTSTSTAYMELRSLRSDDTAVYYCARTSYYGGMDYWGRGTLVTVASGGGASGGGGSGGGGSDIVMTQTPLSSPVTLGQPASISCRSSQSLVHSNGNTYLHWLQQRPGQPPRLLIYKVSNRFSGVPDRFSGSGAGTDFTLKISRVEAEDVGVYYCSQSTHVPRTFGQGTKLEIKR , report its koff.
RESULT: 0.00327

QUERY: Next binder up: scFv clone HH41 (scFv) scFv: QVQLVQSGAEVKQPGASVKVSCKASGYTFTGYNMYWVRQAPGQGLEWMGYIDPYNGDTTYNQKFKGRVTMTTDTSTSTAYMKLRSLRSDDTAVYYCARTSYYGGMDYWGRGTLVTVASGGGASGGGGSGGGGSDIVMTQTPLSSPVTLGQPASISCRSSQSLVHGNGNTYLHWLQQRPGQPPRLLIYKVSNRFSGVPDRFSGSGAGTDFTLKISRVEAEDVGVYYCSQSTHVPRTFGQGTKLEIKR
RESULT: 0.00104
